Test system: pEGFR Ba/F3 (EGFR Δ19del/T790M/C797S) cells
Assay: Cell phosphorylation inhibition experiment, pEGFR Ba/F3 (EGFR Δ19del/T790M/C797S)
Assay type: cell-based
Conditions: Ba/F3 EGFR; Ba/F3 cells, EGF stimulated; read-out: Effect on cellular EGFR phosphorylation Ba/F3(Δ19del/T790M/C797S) IC50
Procedure: The test compounds and reference compounds were diluted with 100% DMSO to 10 mM or 1 mM, and then a gradient dilution was performed by using Echo, 150 nL per well, with a three-fold concentration gradient and a ten-point dose response curve. The final concentration of the compounds was 100 μM or 10 μM. […]
measured_attribute: IC50 (µM)

A = COc1cc(N2CCC3(CC2)CN(C)C3)c(C)cc1Nc1ncc(Cl)c(Nc2ccc3cccnc3c2P(C)(C)=O)n1
B = COc1cc(N2CCC(N3CCN(C)CC3)CC2)ccc1Nc1ncc(Cl)c(Nc2ccc3nccnc3c2P(C)(C)=O)n1
C = CCc1cc(Nc2ncc(Br)c(Nc3ccc4ccccc4c3P(C)(C)=O)n2)c(OC)cc1N1CCC2(CC1)CN(C)C2
D = COc1cc(N2CCC3(CC2)CN(C)C3)ccc1Nc1ncc(Cl)c(Nc2ccc3ccccc3c2P(C)(C)=O)n1
E = COc1cc(N2CCC(N(C)C)CC2)c(C)cc1Nc1ncc(Br)c(Nc2ccc3nccnc3c2P(C)(C)=O)n1
Task: Order the entries above from lowest to highest IC50. Give me the labels in the order the question wants.
Result: E, C, D, A, B

A = COc1cc(N2CCC(N3CCN(C)CC3)CC2)ccc1Nc1ncc(Cl)c(Nc2ccc3cccnc3c2P(C)(C)=O)n1
B = COc1cc(N2CCC3(CC2)CN(C)C3)c(C)cc1Nc1ncc(Br)c(Nc2ccc3nccnc3c2P(C)(C)=O)n1
Task: Response body: label of entry with the larger IC50; valid values A , B . # respond with the chosen item's label
Result: A
(A: 0.533 µM, B: 0.025 µM)

1 = COc1cc(N2CCN(C)CC2)c(C)cc1Nc1ncc(Br)c(Nc2ccc3nccnc3c2P(C)(C)=O)n1
2 = COc1cc(N2CCC(N3CCN(C)CC3)CC2)ccc1Nc1ncc(Cl)c(Nc2ccc3[nH]cnc3c2P(C)(C)=O)n1 [Comparative Example 1, reference compound]
3 = COc1cc(N2CCC(N3CCN(C)CC3)CC2)ccc1Nc1ncc(Cl)c(Nc2ccc3ccccc3c2P(C)(C)=O)n1
Task: Rank by IC50 (largest to smallest). Give me the labels in the order the question wants.
Result: 2, 3, 1
(2: 1.01 µM, 3: 0.187 µM, 1: 0.027 µM)

---

system: Ba/F3 (EGFR Δ19del/T790M/C797S) cells; assay: Anti-proliferation experiment on cells (2), Ba/F3 (EGFR Δ19del/T790M/C797S); assay type: cell-based; settings: Ba/F3 EGFR, 72 h; Ba/F3 cells, 3 days; read-out: anti-proliferation effect on cells Ba/F3(Δ19del/T790M/C797S) IC50
measured_attribute: IC50 (nM)

Some compounds with recorded IC50:
1. COc1cc(N2CCC3(CC2)CN(C)C3)c(C)cc1Nc1ncc(Cl)c(Nc2ccc3ccccc3c2P(C)(C)=O)n1
149
2. COc1cc(N2CCC3(CC2)CN(C)C3)c(C)cc1Nc1ncc(OC(=O)N(C)C)c(Nc2ccc3ccccc3c2P(C)(C)=O)n1
4750
3. COc1cc(N2CCC(N3CCN(C)CC3)CC2)c(C)cc1Nc1ncc(Br)c(Nc2ccc3scnc3c2P(C)(C)=O)n1
36
4. COc1cc(N2CCC3(CC2)CN(CCN(C)C)C3)c(C)cc1Nc1ncc(Cl)c(Nc2ccc3ccccc3c2P(C)(C)=O)n1
214
5. COc1cc(N2CCC(N3CCN(C)CC3)CC2)c(Cl)cc1Nc1ncc(Br)c(Nc2ccc3nccnc3c2P(C)(C)=O)n1
39

1 = COc1cc(N2CCC(N3CCN(C)CC3)CC2)ccc1Nc1ncc(Br)c(Nc2ccc3c(c2P(C)(C)=O)CCC3)n1
2 = COc1cc(N2CCC3(CC2)CN(C)C3)c(C)cc1Nc1ncc(Br)c(Nc2ccc3ccccc3c2P(C)(C)=O)n1
Task: Please compare: 1 and 2 . Report which one has the smaller IC50 value. # respond with the chosen item's label
Result: 2
(2: 103 nM, 1: 371 nM)

---

test system: Ba/F3 (EGFR Δ19del/T790M/C797S) cells; assay: Anti-proliferation experiment on cells (2), Ba/F3 (EGFR Δ19del/T790M/C797S); type: cell-based; settings: Ba/F3 EGFR, 72 h; Ba/F3 cells, 3 days; read-out: anti-proliferation effect on cells Ba/F3(Δ19del/T790M/C797S) IC50
pIC50: −log10 of the molar value.
measured_attribute: pIC50

1 = COc1cc(N2CCC3(CC2)CN(C)C3)c(C)cc1Nc1ncc(C(C)=O)c(Nc2ccc3ccccc3c2P(C)(C)=O)n1 [Compound 24]
2 = COc1cc(N2CCC(N3CCN(C)CC3)CC2)c(C)cc1Nc1ncc(C)c(Nc2ccc3nccnc3c2P(C)(C)=O)n1 [Example 48]
3 = CCc1cc(Nc2ncc(Br)c(Nc3ccc4nccnc4c3P(C)(C)=O)n2)c(OC)cc1N1CCC2(CCN(C)CC2)CC1 [Example 58]
Task: Put the items in sequence by pIC50, from largest down. Give me the labels in the order the question wants.
Result: 3, 2, 1

---

biological target: EGFR (WT) (Homo sapiens (Human))
Sequence (P00533 25-1210): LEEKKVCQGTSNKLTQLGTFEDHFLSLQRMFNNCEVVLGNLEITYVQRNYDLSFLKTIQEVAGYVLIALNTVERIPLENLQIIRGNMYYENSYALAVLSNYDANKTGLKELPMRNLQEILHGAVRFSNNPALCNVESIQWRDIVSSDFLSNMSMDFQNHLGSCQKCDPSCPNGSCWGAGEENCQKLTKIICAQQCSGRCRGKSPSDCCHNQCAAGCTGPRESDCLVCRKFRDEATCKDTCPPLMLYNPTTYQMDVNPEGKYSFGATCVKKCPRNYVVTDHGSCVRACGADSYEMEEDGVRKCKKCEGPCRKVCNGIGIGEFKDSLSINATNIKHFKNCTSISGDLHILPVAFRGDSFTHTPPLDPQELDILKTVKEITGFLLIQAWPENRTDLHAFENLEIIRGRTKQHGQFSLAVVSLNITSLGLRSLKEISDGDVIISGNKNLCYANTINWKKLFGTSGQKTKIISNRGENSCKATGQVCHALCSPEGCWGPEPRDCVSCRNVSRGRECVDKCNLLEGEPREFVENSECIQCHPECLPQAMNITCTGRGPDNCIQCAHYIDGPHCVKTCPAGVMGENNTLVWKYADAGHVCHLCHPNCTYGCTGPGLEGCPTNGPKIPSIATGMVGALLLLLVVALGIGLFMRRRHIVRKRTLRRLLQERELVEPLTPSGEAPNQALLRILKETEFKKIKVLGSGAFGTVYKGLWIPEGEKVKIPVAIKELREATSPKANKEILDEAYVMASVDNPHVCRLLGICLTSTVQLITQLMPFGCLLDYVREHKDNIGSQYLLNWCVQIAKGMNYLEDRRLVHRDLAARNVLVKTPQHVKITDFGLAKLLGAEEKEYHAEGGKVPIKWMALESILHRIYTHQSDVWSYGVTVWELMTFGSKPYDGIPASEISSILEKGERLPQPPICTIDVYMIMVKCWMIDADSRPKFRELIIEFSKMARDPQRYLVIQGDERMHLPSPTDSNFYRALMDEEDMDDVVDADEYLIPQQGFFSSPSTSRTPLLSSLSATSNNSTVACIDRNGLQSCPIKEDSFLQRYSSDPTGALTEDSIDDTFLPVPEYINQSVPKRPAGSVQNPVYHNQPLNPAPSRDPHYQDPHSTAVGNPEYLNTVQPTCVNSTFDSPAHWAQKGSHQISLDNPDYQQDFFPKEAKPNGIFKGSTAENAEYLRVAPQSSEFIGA
measured_attribute: IC50 (nM)
Return type: number; implicit unit nM.

Task: Please report the recorded IC50 for `CCc1cc(Nc2ncc(Br)c(Nc3ccc4nccnc4c3P(C)(C)=O)n2)c(OC)cc1N1CCC(N2CCN(C)CC2)CC1` .
Result: 5.12

---

# reported AUC(0-t); entries follow
experiment: Plasma, tumor and lung exposure in mice of the Ba/F3 CDX efficacy experiment; type: in vivo; conditions: BALB/c nude, plasma; mouse, 15.0 mg/kg/day oral
Return type: number; implicit unit µM·h.

1. COc1cc(N2CCC(N3CCN(C)CC3)CC2)ccc1Nc1ncc(Cl)c(Nc2ccccc2P(C)(C)=O)n1 [Brigatinib, reference compound]
32.8

// switching to the query compound
Task: Please report the recorded AUC(0-t) for `CCc1cc(Nc2ncc(Br)c(Nc3ccc4nccnc4c3P(C)(C)=O)n2)c(OC)cc1N1CCC(N2CCN(C)CC2)CC1` .
Result: 122

---

assay: Plasma, tumor and lung exposure in mice of the Ba/F3 CDX efficacy experiment; format: in vivo; settings: BALB/c nude, plasma; mouse, 15.0 mg/kg/day oral
# reported half-life; entries follow
Return type: number; implicit unit h.

1. CCc1cc(Nc2ncc(Br)c(Nc3ccc4nccnc4c3P(C)(C)=O)n2)c(OC)cc1N1CCC(N2CCN(C)CC2)CC1 [Compound 41]
20.5
2. COc1cc(N2CCC(N3CCN(C)CC3)CC2)c(C)cc1Nc1ncc(Br)c(Nc2ccc3nccnc3c2P(C)(C)=O)n1 [Compound 34]
10

// switching to the query compound
Task: Please report the recorded half-life for COc1cc(N2CCC(N3CCN(C)CC3)CC2)ccc1Nc1ncc(Cl)c(Nc2ccccc2P(C)(C)=O)n1 [Brigatinib, reference compound] .
Result: 5.57

---

target: EGFR (Δ19del/T790M/C797S) (Homo sapiens, UniProt P00533, C797S/T790M, form not given); assay: Enzyme activity experiment (1): EGFR (Δ19del/T790M/C797S) enzyme inhibition; assay type: biochemical; conditions: read-out: EGFR (Δ19del/T790M/C797S) IC50
Sequence (P00533 25-1210 T790M/C797S limits assumed, form open): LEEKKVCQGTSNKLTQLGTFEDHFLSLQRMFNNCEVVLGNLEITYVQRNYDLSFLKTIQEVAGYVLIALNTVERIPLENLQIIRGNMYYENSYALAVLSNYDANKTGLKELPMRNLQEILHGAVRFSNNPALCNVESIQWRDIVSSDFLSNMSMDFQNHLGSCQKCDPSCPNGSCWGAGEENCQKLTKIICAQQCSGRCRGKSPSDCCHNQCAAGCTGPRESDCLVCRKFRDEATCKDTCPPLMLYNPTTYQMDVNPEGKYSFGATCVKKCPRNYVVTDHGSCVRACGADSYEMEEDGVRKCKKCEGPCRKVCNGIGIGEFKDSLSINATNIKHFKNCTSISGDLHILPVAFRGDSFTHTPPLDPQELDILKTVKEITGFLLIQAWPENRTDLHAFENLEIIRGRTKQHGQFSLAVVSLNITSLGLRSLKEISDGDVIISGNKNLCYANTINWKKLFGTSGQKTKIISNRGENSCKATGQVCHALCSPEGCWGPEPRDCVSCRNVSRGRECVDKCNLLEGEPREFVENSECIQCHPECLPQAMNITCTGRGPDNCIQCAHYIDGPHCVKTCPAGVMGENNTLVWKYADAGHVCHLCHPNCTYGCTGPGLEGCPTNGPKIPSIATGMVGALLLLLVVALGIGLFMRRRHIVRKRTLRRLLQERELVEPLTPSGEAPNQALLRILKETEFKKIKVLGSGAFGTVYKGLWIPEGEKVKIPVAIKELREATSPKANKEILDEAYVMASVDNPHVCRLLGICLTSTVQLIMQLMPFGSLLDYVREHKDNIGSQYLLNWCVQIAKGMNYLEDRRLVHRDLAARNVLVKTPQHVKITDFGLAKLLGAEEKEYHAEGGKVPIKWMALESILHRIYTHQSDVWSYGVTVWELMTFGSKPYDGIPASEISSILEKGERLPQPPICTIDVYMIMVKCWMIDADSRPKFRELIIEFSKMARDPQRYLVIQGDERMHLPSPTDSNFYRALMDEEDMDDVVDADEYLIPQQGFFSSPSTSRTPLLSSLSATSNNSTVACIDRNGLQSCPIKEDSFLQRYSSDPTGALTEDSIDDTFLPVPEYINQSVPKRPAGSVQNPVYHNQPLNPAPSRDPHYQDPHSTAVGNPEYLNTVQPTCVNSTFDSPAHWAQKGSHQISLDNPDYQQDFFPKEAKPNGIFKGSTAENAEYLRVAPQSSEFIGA
measured_attribute: IC50 (nM)

1) COc1cc(N2CCC3(CC2)CN(C)C3)c(C)cc1Nc1ncc(Cl)c(Nc2ccc3c(c2P(C)(C)=O)CCC3)n1
0.491
2) COc1cc(N2CCC3(CC2)CN(C)C3)c(C)cc1Nc1ncc(Cl)c(Nc2ccc3sccc3c2P(C)(C)=O)n1
0.613
3) COc1cc(N2CCC3(CC2)CN(C)C3)c(C)cc1Nc1ncc(C#N)c(Nc2ccc3ccccc3c2P(C)(C)=O)n1
0.679

---

system: Ba/F3 (EGFR Δ19del/T790M/C797S) cells; experiment: Anti-proliferation experiment on cells (2), Ba/F3 (EGFR Δ19del/T790M/C797S); type: cell-based; settings: Ba/F3 EGFR, 72 h; Ba/F3 cells, 3 days; read-out: anti-proliferation effect on cells Ba/F3(Δ19del/T790M/C797S) IC50
pIC50: −log10 of the molar value.
measured_attribute: pIC50

Some compounds with recorded pIC50:
1) COc1cc(N2CCC(N3CCN(C)CC3)CC2)ccc1Nc1ncc(Br)c(Nc2ccc3nccnc3c2P(C)(C)=O)n1
7.32
2) COc1cc(N2CCC3(CC2)CN(C)C3)c(C)cc1Nc1ncc(Cl)c(Nc2ccc3cccnc3c2P(C)(C)=O)n1
6.62
3) COc1cc(N2CCC(N3CCN(C)CC3)CC2)ccc1Nc1ncc(Cl)c(Nc2ccc3ccccc3c2P(C)(C)=O)n1
6.44
4) COc1cc(N2CCC3(CC2)CN(C)C3)c(C)cc1Nc1ncc(Cl)c(Nc2ccc3nccnc3c2P(C)(C)=O)n1
6.56
5) CCc1cc(Nc2ncc(Br)c(Nc3ccc4nccnc4c3P(C)(C)=O)n2)c(OC)cc1N1CCC(N2CCN(C)CC2)CC1
8.05

a = COc1ccc(OCCNCc2cnccn2)cc1Nc1ncc(Cl)c(Nc2ccc3ccccc3c2P(C)(C)=O)n1
b = COc1cc(N2CCC3(CC2)CN(C(C)C)C3)c(C)cc1Nc1ncc(Cl)c(Nc2ccc3sccc3c2P(C)(C)=O)n1
c = COc1cc(N2CCC(N3CCN(C)CC3)CC2)ccc1Nc1ncc(Cl)c(Nc2ccc3c(c2P(C)(C)=O)CCC3)n1
d = COc1cc(N2CCC3(CC2)CN(CCN(C)C)C3)c(C)cc1Nc1cc(Nc2ccc3nccnc3c2P(C)(C)=O)c(Br)cn1
e = COc1cc(N2CCC3(CC2)CN(C)C3)c(C)cc1Nc1ncc(-c2nnc(C)o2)c(Nc2ccc3ccccc3c2P(C)(C)=O)n1
Task: Which order do these items take when sorted by rising pIC50? List them. Give me the labels in the order the question wants.
Result: e, a, c, b, d
(e: 5.57, a: 5.78, c: 6.27, b: 6.62, d: 7.25)

# credit: patent US11390625B2
